target: human TrkA (Homo sapiens, UniProt P04629); construct: purchased Lifetechnologies PV3144; experiment: Human TrkA inhibition assay; format: biochemical; conditions: human TrkA phosphorylation inhibition, ATP 500 μmol/L; read-out: IC50_nM
Sequence (P04629 33-796): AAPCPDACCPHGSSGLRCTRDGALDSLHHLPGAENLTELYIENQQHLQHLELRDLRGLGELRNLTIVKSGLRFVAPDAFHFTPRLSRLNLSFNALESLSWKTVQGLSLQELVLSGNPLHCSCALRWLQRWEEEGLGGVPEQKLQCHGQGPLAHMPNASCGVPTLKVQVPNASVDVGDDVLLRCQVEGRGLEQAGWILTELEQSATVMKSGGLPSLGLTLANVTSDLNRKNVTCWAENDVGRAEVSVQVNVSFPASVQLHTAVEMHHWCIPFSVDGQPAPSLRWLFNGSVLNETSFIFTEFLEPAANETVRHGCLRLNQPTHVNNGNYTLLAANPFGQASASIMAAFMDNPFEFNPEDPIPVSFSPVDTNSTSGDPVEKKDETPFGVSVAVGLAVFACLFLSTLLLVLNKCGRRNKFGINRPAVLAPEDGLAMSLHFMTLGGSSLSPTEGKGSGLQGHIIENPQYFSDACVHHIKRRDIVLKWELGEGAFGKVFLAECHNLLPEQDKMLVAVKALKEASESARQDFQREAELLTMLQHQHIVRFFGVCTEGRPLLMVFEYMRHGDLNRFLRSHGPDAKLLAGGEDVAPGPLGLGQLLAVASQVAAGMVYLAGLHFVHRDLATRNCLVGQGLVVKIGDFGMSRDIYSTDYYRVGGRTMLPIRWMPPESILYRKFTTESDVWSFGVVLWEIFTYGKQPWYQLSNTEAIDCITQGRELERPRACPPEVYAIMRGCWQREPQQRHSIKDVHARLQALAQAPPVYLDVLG
pIC50: −log10 of the molar value.
Reported pIC50 by item:

Consider the reported pIC50 for these compounds:
{"compound": "COCCN1C[C@@H](NC(=O)Nc2c(C)c(-c3ccc(N=S(C)(C)=O)nc3)nn2-c2ccccc2)[C@H](c2ccccc2)C1 (racemic) [Compound I-91]", "pIC50": "> 7.00"}
{"compound": "COCCN1C[C@@H](NC(=O)Nc2c(C)c(-c3cnc4nc(C)oc4c3)nn2-c2ccccc2)[C@H](c2ccccc2)C1 (racemic) [Compound I-34]", "pIC50": "> 7.00"}

Consider the additional compound presented here.
Requested read-out: pIC50. Entry: COCCN1C[C@@H](NC(=O)Nc2c(C)c(-c3cc(C(=O)N[C@H]4CCOC4)c(=O)n(C)c3)nn2-c2ccccc2)[C@H](c2ccccc2)C1 (racemic) [Compound I-111]
> 7.00
